Target: T1, TIA1 full-length (fl TIA1) (Mus musculus, UniProt P52912 1-386)
T1 sequence: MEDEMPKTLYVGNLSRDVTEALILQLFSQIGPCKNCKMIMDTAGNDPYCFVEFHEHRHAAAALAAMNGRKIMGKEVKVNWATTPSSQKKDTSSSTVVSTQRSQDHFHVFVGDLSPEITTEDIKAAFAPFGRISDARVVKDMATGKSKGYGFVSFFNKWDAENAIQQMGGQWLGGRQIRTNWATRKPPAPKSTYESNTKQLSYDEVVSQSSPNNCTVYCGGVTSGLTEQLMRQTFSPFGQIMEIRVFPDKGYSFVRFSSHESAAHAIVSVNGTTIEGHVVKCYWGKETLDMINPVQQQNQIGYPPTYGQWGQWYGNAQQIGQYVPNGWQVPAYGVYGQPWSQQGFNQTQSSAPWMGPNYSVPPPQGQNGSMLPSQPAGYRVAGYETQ
Test: ITC
reported_property: pKd
pKd field: float, defined as -log10 of concentration (mol/L).

For TTTTTACTCC (ssDNA) [TC1] , write its pKd.
6.58
